Tested on: late components of human complement (C3-C9)
protocol.summary: Test, Code 035 (C3-C9 inhibitor), lysis of EAC 142 by late complement components
Assay type: cell-based
measurement.conditions: serial two-fold dilution assay; higher well number indicates higher activity
Structures can show the parent of a compound that is named as a salt.
property.name: In Vitro Activity 035

compound: O=S(=O)(O)OC[C@H]1O[C@H](OC[C@H]2O[C@H](OC[C@H]3O[C@H](O[C@]4(COS(=O)(=O)O)O[C@H](COS(=O)(=O)O)[C@@H](OS(=O)(=O)O)[C@@H]4OS(=O)(=O)O)[C@H](OS(=O)(=O)O)[C@@H](OS(=O)(=O)O)[C@@H]3OS(=O)(=O)O)[C@H](OS(=O)(=O)O)[C@@H](OS(=O)(=O)O)[C@H]2OS(=O)(=O)O)[C@H](OS(=O)(=O)O)[C@@H](OS(=O)(=O)O)[C@H]1OS(=O)(=O)O [Stachyose Poly(H--)sulfate Sodium Salt, Stachyose Poly(H-)sulfate Sodium Salt]
target.under.test: late components of human complement (C3-C9)
property.name: In Vitro Activity 035
result: N

====

System: late components of human complement (C3-C9)
protocol.summary: Test, Code 035 (C3-C9 inhibitor), lysis of EAC 142 by late complement components
Format: cell-based
measurement.conditions: serial two-fold dilution assay; higher well number indicates higher activity
Where a name gives a salt, the structure may show the parent alone.

molecule: O=S(=O)(O)OC[C@H]1O[C@H](OC[C@H]2O[C@H](O[C@]3(COS(=O)(=O)O)O[C@H](COS(=O)(=O)O)[C@@H](OS(=O)(=O)O)[C@@H]3OS(=O)(=O)O)[C@H](OS(=O)(=O)O)[C@@H](OS(=O)(=O)O)[C@@H]2OS(=O)(=O)O)[C@H](OS(=O)(=O)O)[C@@H](OS(=O)(=O)O)[C@H]1OS(=O)(=O)O
In Vitro Activity 035: N

molecule: O=S(=O)(O)OC[C@H]1O[C@H](OC[C@H]2O[C@H](OC[C@H]3O[C@H](O[C@]4(COS(=O)(=O)O)O[C@H](COS(=O)(=O)O)[C@@H](OS(=O)(=O)O)[C@@H]4OS(=O)(=O)O)[C@H](OS(=O)(=O)O)[C@@H](OS(=O)(=O)O)[C@@H]3OS(=O)(=O)O)[C@H](OS(=O)(=O)O)[C@@H](OS(=O)(=O)O)[C@H]2OS(=O)(=O)O)[C@H](OS(=O)(=O)O)[C@@H](OS(=O)(=O)O)[C@H]1OS(=O)(=O)O [Stachyose Poly(H--)sulfate Triethylamine Salt]
In Vitro Activity 035: N

molecule: O=S(=O)(O)OC[C@H]1O[C@H](OC[C@H]2O[C@H](OC[C@H]3O[C@H](O[C@]4(COS(=O)(=O)O)O[C@H](COS(=O)(=O)O)[C@@H](OS(=O)(=O)O)[C@@H]4OS(=O)(=O)O)[C@H](OS(=O)(=O)O)[C@@H](OS(=O)(=O)O)[C@@H]3OS(=O)(=O)O)[C@H](OS(=O)(=O)O)[C@@H](OS(=O)(=O)O)[C@H]2OS(=O)(=O)O)[C@H](OS(=O)(=O)O)[C@@H](OS(=O)(=O)O)[C@H]1OS(=O)(=O)O [Stachyose Poly(H--)sulfate Trimethylamine Salt]
In Vitro Activity 035: N
